Test description: chemical genetic growth profiling, strain panel (AID 1159580);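 note: tested at 20 µM; growth read once vehicle control cultures reached saturation at 30 °C; 1 = growth at the plate median or of vehicle wells; lower values mean less growth of the strain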
Condition description: S. cerevisiae deletion strains, growth OD, locus YDR159W, strain sac3, stronger effect = lower value
About 2,000 (36%) of roughly 5,500 compounds were called active. Inconclusive results (about 18%) are left out. The list shows a part of the results.
Quantity: normalized growth

May I ask what normalized growth has been recorded for CC(=O)c1c(O)c(C)c(O)c2c1OC1=CC(=O)C(C(C)=O)C(=O)C12C (stereo not given) ?
0.762 (active)

Now the same for "O=[N+]([O-])c1cc([As](=O)(O)O)ccc1O"
0.978 (inactive)

Try CO[C@H]1/C=C/O[C@@]2(C)Oc3c(C)c(O)c4c(O)c(c(/C=N/N5CCN(C)CC5)c(O)c4c3C2=O)NC(=O)/C(C)=C\C=C\C(C)[C@H](O)[C@@H](C)[C@@H](O)[C@@H](C)[C@@H](OC(C)=O)[C@@H]1C (stereo not given in full) next.
1.03 (inactive)

# repeat for "O=[N+]([O-])c1cc(O)c(O)c([N+](=O)[O-])c1"
0.957 (inactive)

Again, but for CO[C@H]1/C=C/O[C@@]2(C)Oc3c(C)c(O)c4c(O)c(c5c(nc6cc(C)ccn65)c4c3C2=O)NC(=O)/C(C)=C\C=C\[C@H](C)[C@H](O)[C@@H](C)C(O)[C@@H](C)[C@H](OC(C)=O)[C@@H]1C (stereo not given in full)
1.05 (inactive)

What about CC(=O)O[C@@H]1CC2C(C)(C)C=CC(=O)[C@]2(C)C2CC[C@@]3(C)[C@H](c4ccoc4)OC(=O)C4OC43[C@@]21C (stereo not given in full) ?
0.988 (inactive)

Now consider "CC(C)(C)NC[C@@H](O)COc1nsnc1N1CCOCC1" and answer again.
1 (inactive)

Lookup CN1C(CC(=O)c2ccccc2)CCCC1CC(O)c1ccccc1 (stereo not given)
0.959 (inactive)

Now the compound "OC[C@@H]1CCCN2CCCC[C@H]12"
0.961 (inactive)

Next: "CC(=O)Oc1ccc(Cl)c2cccnc12"
0.0841 (active)

One more compound: "Nc1ccc(S(=O)(=O)Nc2ccccn2)cc1"
0.986 (inactive)

Next compound up: "C1CCN2C[C@@H]3C[C@H](CN4CCCC[C@@H]34)[C@H]2C1"
1.05 (inactive)

Likewise for "OC[C@@H](O)[C@@H](O[C@@H]1O[C@H](CO)[C@@H](O)[C@H](O)[C@H]1O)[C@H](O)[C@@H](O)CO" ?
0.986 (inactive)

Do the same for CC(=O)O[C@@H]1C[C@@]2(C)[C@H](c3ccoc3)C[C@H]3O[C@]32[C@]2(C)C(=O)C(O)=C3C(C)(C)C(=O)C=C[C@]3(C)C12 (stereo not given in full) please
0.777 (active)

Subsequent entry: C1CCN2CC3CC(CN4CCCCC34)C2C1 (stereo not given)
1.03 (inactive)

Now consider "Oc1c(I)cc(I)c2cccnc12" and answer again.
0.107 (active)

Query "CN[C@H](CC(=O)O)C(=O)O" next
1.03 (inactive)

Please do the same for "COc1c2c(cc3c1OCO3)CCN(C)C2" as well.
1.01 (inactive)

// same read-out, input: "COc1cc(OC)c2c(=O)c(-c3ccccc3)c(C)oc2c1OC"
0.973 (inactive)

Another compound: "CC(=O)Nc1cc([As](=O)(O)O)ccc1O"
0.988 (inactive)
